MEASUREMENT CONDITIONS: human gut metagenome, 24 h, 2 µM; note: call rule not given here
METRIC: Bacterial Biotransformation

>  <MOLECULE>
C=CCN1CC[C@]23c4c5ccc(O)c4O[C@H]2C(=O)CC[C@@]3(O)[C@H]1C5

>  <REPORTED RESULT>
Compound NOT metabolized

$$$$
>  <MOLECULE>
CC(=O)OCC(=O)[C@@]12N=C(C)O[C@@H]1C[C@H]1[C@@H]3CCC4=CC(=O)C=C[C@]4(C)[C@H]3[C@@H](O)C[C@@]12C

>  <REPORTED RESULT>
Compound metabolized

$$$$
>  <MOLECULE>
CCCCCCOC(=O)/N=C(/N)c1ccc(NCc2nc3cc(C(=O)N(CCC(=O)OCC)c4ccccn4)ccc3n2C)cc1.CS(=O)(=O)O [DABIGATRAN ETEXILATE MESYLATE]

>  <REPORTED RESULT>
Compound NOT metabolized

$$$$
>  <MOLECULE>
CCOC(=O)[C@H](CCc1ccccc1)N[C@H]1CCc2ccccc2N(CC(=O)O)C1=O

>  <REPORTED RESULT>
Compound metabolized

$$$$

* * *

TEST SUMMARY: The drug is tested on WLS-038 corresponding to human gut metagenome with ENA study accession number: PRJEB37062 and ENA sample accession number: ERS12561745 for biotransformation under anaerobic condition. The drug concentrations were measured over 9 timepoints collected between 0 and 24 hours of incubation by liquid-chromatography-coupled mass spectrometry (LC–MS)
MEASUREMENT CONDITIONS: 2 µM
METRIC: Bacterial Biotransformation

Use the examples below as a reference point.
>  <COMPOUND>
CC(=O)O[C@]1(C(C)=O)CC[C@H]2[C@@H]3C=C(Cl)C4=CC(=O)[C@@H]5C[C@@H]5[C@]4(C)[C@H]3CC[C@@]21C [CYPROTERONE ACETATE]

>  <Bacterial Biotransformation>
Compound metabolized

$$$$
>  <COMPOUND>
CC(C)OC(=O)C(C)(C)Oc1ccc(C(=O)c2ccc(Cl)cc2)cc1 [FENOFIBRATE]

>  <Bacterial Biotransformation>
Compound NOT metabolized

$$$$
>  <COMPOUND>
CCN(CC)CCOCCOC(=O)C1(c2ccccc2)CCCC1.O=C(O)CC(O)(CC(=O)O)C(=O)O [CARBETAPENTANE CITRATE]

>  <Bacterial Biotransformation>
Compound metabolized

$$$$
>  <COMPOUND>
CCCc1nn(C)c2c(=O)[nH]c(-c3cc(S(=O)(=O)N4CCN(C)CC4)ccc3OCC)nc12.O=C(O)CC(O)(CC(=O)O)C(=O)O [SILDENAFIL CITRATE]

>  <Bacterial Biotransformation>
Compound NOT metabolized

$$$$

### Prompt Return value of Bacterial Biotransformation for input CC(C)(Oc1ccc(CCNC(=O)c2ccc(Cl)cc2)cc1)C(=O)O [BEZAFIBRATE] , no commentary.
### Response Compound metabolized

### Prompt Return value of Bacterial Biotransformation for input CC(CN1c2ccccc2Sc2ccccc21)N(C)C (stereo not drawn) , no commentary.
### Response Compound metabolized

### Prompt Return value of Bacterial Biotransformation for input O=C(O)COCCN1CCN(C(c2ccccc2)c2ccc(Cl)cc2)CC1 (stereo not drawn) , no commentary.
### Response Compound metabolized

### Prompt Return value of Bacterial Biotransformation for input CN1CCN(C2=Nc3cc(Cl)ccc3Nc3ccccc32)CC1 , no commentary.
### Response Compound NOT metabolized

### Prompt Return value of Bacterial Biotransformation for input CC(=O)CC(c1ccccc1)c1c(O)c2ccccc2oc1=O (stereo not drawn) , no commentary.
### Response Compound NOT metabolized
